# Number of surviving mice per record follows
Test system: Staph. aureus 133
assay-method-text: Surviving mice after intraperitoneal infection and subcutaneous therapy
Type: in vivo, white mice, CF1 strain
test-parameters: 2 × 200 units/mouse s.c., 2 days
quantity: Number of surviving mice (%)

1) CN(C(=O)N[C@@H](C(=O)N[C@@H]1C(=O)N2[C@@H]1SC(C)(C)[C@@H]2C(=O)O)c1ccccc1)C(=O)C1CC=CCC1 (single isomer, unassigned) [Example 65]    80
2) Cc1ccc(C(=O)N(C)C(=O)N[C@@H](C(=O)N[C@@H]2C(=O)N3[C@@H]2SC(C)(C)[C@@H]3C(=O)O)c2ccccc2)cc1 [Example 73]    70
3) CC1(C)S[C@@H]2[C@H](NC(=O)[C@H](N)c3ccccc3)C(=O)N2[C@H]1C(=O)O [Ampicillin, D(-)-α-Aminobenzylpenicillin, reference compound]    100

====

# MIC per record follows
Test system: E. coli 14
assay-method-text: MIC, liquid medium test tube series dilution test
Type: cell-based
test-parameters: E. coli 14, 24 hours, 37°C
quantity: MIC

1. CC1(C)S[C@@H]2[C@H](NC(=O)[C@H](NC(=O)N(CCCl)C(=O)CCC(Cl)(Cl)Cl)c3ccccc3)C(=O)N2[C@H]1C(=O)O    6.25 units/ml
2. CN(C(=O)N[C@@H](C(=O)N[C@@H]1C(=O)N2[C@@H]1SC(C)(C)[C@@H]2C(=O)O)c1ccccc1)C(=O)OC1CCCCC1 [Example 29]    3.1 units/ml
3. CN(C(=O)N[C@@H](C(=O)N[C@@H]1C(=O)N2[C@@H]1SC(C)(C)[C@@H]2C(=O)O)c1ccccc1)C(=O)c1ccccc1Br    0.78 units/ml
4. CCCCCCCCCCCCCCCCN(C(C)=O)C(=O)N[C@@H](C(=O)N[C@@H]1C(=O)N2[C@@H]1SC(C)(C)[C@@H]2C(=O)O)c1ccccc1    100 units/ml
5. CN(C(=O)N[C@@H](C(=O)N[C@@H]1C(=O)N2[C@@H]1SC(C)(C)[C@@H]2C(=O)O)c1ccccc1)C(=O)N1CCCCC1    3.12 units/ml
6. CN(C(=O)CCCCl)C(=O)N[C@@H](C(=O)N[C@@H]1C(=O)N2[C@@H]1SC(C)(C)[C@@H]2C(=O)O)c1ccccc1 [Example 88]    1.56 units/ml
7. CN(C(=O)N[C@@H](C(=O)N[C@@H]1C(=O)N2[C@@H]1SC(C)(C)[C@@H]2C(=O)O)c1ccccc1)C(=O)c1ccc(Cl)cc1[N+](=O)[O-]    0.78 units/ml
8. CC(C)OC(=O)N(C)C(=O)N[C@@H](C(=O)N[C@@H]1C(=O)N2[C@@H]1SC(C)(C)[C@@H]2C(=O)O)c1ccccc1    6.25 units/ml
9. CC1(C)S[C@@H]2[C@H](NC(=O)[C@H](NC(=O)N3CCNC3=O)c3ccccc3)C(=O)N2[C@H]1C(=O)O [Example 53]    3,12 units/ml
10. CC1(C)S[C@@H]2[C@H](NC(=O)[C@H](NC(=O)N3CCNC3=S)c3ccccc3)C(=O)N2[C@H]1C(=O)O    12.5 units/ml
11. CC(=O)N(C)C(=O)NC(C(=O)N[C@@H]1C(=O)N2[C@@H]1SC(C)(C)[C@@H]2C(=O)O)c1ccc(C)cc1 (stereo partly shown)    12.5 units/ml
12. CC(=O)N(C)C(=O)NC(C(=O)N[C@@H]1C(=O)N2[C@@H]1SC(C)(C)[C@@H]2C(=O)O)c1cccs1 (stereo partly shown)    12.5 units/ml
13. CSc1ccc(C(NC(=O)N2CCNC2=O)C(=O)N[C@@H]2C(=O)N3[C@@H]2SC(C)(C)[C@@H]3C(=O)O)cc1 (stereo partly shown) [Example 55]    6,25 units/ml
14. CC1(C)S[C@@H]2[C@H](NC(=O)[C@H](NC(=O)N3CCNC3=O)c3ccccc3)C(=O)N2[C@H]1C(=O)O [Example 51]    3,12 units/ml
15. Cc1ccc(C(NC(=O)N2CCNC2=O)C(=O)N[C@@H]2C(=O)N3[C@@H]2SC(C)(C)[C@@H]3C(=O)O)cc1 (stereo partly shown) [Example 45]    6,25 units/ml
16. CC(=O)N(C)C(=O)N[C@@H](C(=O)N[C@@H]1C(=O)N2[C@@H]1SC(C)(C)[C@@H]2C(=O)O)c1ccccc1 [Example 66A]    3.12 units/ml
17. CN(C(=O)NC(C(=O)N[C@@H]1C(=O)N2[C@@H]1SC(C)(C)[C@@H]2C(=O)O)c1cccs1)C(=O)c1ccccc1Cl (stereo partly shown)    12.5 units/ml
18. C=CCN(C(C)=O)C(=O)NC(C(=O)N[C@@H]1C(=O)N2[C@@H]1SC(C)(C)[C@@H]2C(=O)O)c1cccs1 (stereo partly shown)    4-20 units/ml
19. CC1(C)S[C@@H]2[C@H](NC(=O)[C@H](NC(=O)N3CCNC3=O)c3ccccc3)C(=O)N2[C@H]1C(=O)O [Example 52]    3,12 units/ml
20. C=CCN(C(=O)NC(C(=O)N[C@@H]1C(=O)N2[C@@H]1SC(C)(C)[C@@H]2C(=O)O)c1ccc(OC)cc1)C(=O)c1ccccc1 (stereo partly shown)    4-20 units/ml
21. C=CCOC(=O)N(C)C(=O)N[C@@H](C(=O)N[C@@H]1C(=O)N2[C@@H]1SC(C)(C)[C@@H]2C(=O)O)c1ccccc1 [Example 30]    4-20 units/ml
22. CCN(CC)C(=O)N(C)C(=O)N[C@@H](C(=O)N[C@@H]1C(=O)N2[C@@H]1SC(C)(C)[C@@H]2C(=O)O)c1ccccc1    12.5 units/ml
23. COC(=O)N(C)C(=O)N[C@@H](C(=O)N[C@@H]1C(=O)N2[C@@H]1SC(C)(C)[C@@H]2C(=O)O)c1c(Cl)cccc1Cl    100-500 units/ml
24. Cc1ccc(C(=O)N(C)C(=O)N[C@@H](C(=O)N[C@@H]2C(=O)N3[C@@H]2SC(C)(C)[C@@H]3C(=O)O)c2ccccc2)cc1[N+](=O)[O-]    3.12 units/ml
